Assay: Pharmacokinetics after IV and oral administration to rats
Assay type: in vivo
Settings: rat, in vivo, oral 10 mg/kg

{"Mol": "Oc1cc(-c2ccccc2)nn1-c1ccccn1", "Cmax": "194 ng/mL"}

* * *

Test: Pharmacokinetics after IV and oral administration to rats
Assay type: in vivo
Conditions: rat, in vivo, IV 2 mg/kg

{"Mol": "CCCc1c(-c2ccccc2)nn(-c2ccccn2)c1O", "Unit": "L", "Vd": 1.52}

* * *

Target: human Nox4 (Homo sapiens, UniProt Q9NPH5)
Sequence (Q9NPH5 1-578): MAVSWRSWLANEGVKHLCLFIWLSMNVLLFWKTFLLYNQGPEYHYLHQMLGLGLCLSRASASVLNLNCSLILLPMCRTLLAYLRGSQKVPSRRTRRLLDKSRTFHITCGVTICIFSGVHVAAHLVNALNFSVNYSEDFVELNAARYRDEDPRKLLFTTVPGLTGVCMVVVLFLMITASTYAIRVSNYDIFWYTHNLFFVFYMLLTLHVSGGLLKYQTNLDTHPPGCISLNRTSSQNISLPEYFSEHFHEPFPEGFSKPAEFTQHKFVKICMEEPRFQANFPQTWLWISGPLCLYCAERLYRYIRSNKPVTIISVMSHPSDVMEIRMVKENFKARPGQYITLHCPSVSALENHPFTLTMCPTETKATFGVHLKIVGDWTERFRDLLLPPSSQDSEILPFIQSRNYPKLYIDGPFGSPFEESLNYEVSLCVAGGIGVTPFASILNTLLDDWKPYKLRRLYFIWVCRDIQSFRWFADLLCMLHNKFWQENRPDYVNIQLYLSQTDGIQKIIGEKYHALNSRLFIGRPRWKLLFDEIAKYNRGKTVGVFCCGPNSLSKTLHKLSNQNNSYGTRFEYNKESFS

{"Mol": "Oc1cc(-c2ccccc2)nn1-c1ccccn1", "Ki": "3.12 µM"}

* * *

Experiment: Pharmacokinetics after IV and oral administration to rats
Type: in vivo
Settings: rat, in vivo, IV 1 mg/kg

{"Compound": "Oc1cc(-c2ccccc2)nn1-c1ccccn1 [Ewha-89403]", "C0 [ng/mL]": 2520}

* * *

Assay: Pharmacokinetics after IV and oral administration to rats
Type: in vivo
Conditions: rat, in vivo, oral 20 mg/kg

{"Molecule": "CCCc1c(-c2ccccc2)nn(-c2ccccn2)c1O [Ewha-18278]", "Unit": "ng·h/mL", "AUC(0-t)": 11300}

* * *

Experiment: Pharmacokinetics after IV and oral administration to rats
Type: in vivo
Details: rat, in vivo, IV 1 mg/kg
Property: AUC(0-t) (ng·h/mL)

{"Mol": "Oc1cc(-c2ccccc2)nn1-c1ccccn1", "Unit": "ng·h/mL", "Number": 343}

* * *

Assay: Pharmacokinetics after IV and oral administration to rats
Assay type: in vivo
Details: rat, in vivo, oral 20 mg/kg
Description: Supplementary Table S1. Pharmacokinetic parameters of Ewha-89403 following IV and oral administration at the doses of 1 mg/kg and 10 mg/kg, respectively, to rats (n=4-5) PK Parameters IV Injection Oral Administration Absolute Bioavailability (BA) = 4.3 % Supplementary Table S2. Pharmacokinetic parameters of Ewha-18278 following IV and oral administration at the doses of 2 mg/kg and 20 mg/kg, respectively, to rats (n=5-6) […] Absolute Bioavailability (BA) = 63.8 %

{"Mol": "CCCc1c(-c2ccccc2)nn(-c2ccccn2)c1O", "Unit": "h", "half-life": 14.4}

meta.source: paper PMC4792161
